Species: Rattus norvegicus
Assay: Open TG-GATES - Regimen: Single
Format: toxicity, organism-based, Sprague-Dawley
Parameters: regimen Single, gender Male, age 6 weeks
Conditions: in vivo, po, 0 mg/kg, 6 h, tissue Plasma, route gavage, dose level Control
Some compounds, each annotated with its measured LDH.
Form entry: enter the amount, then its unit.

Study these solved cases before continuing.
Prompt: Please list LDH recorded for the compound `CCc1oc2ccccc2c1C(=O)c1cc(Br)c(O)c(Br)c1`
Response: 82.8 IU/L

Prompt: Please list LDH recorded for the compound `CN(C)C(=N)N=C(N)N`
Response: 64 IU/L

Prompt: Please list LDH recorded for the compound CN(C)CCC=C1c2ccccc2COc2ccccc21 [DOXEPIN]
Response: 80.2 IU/L

Prompt: Please list LDH recorded for the compound `CC[C@H]1[C@@H]2C[C@H]3[C@@H]4N(C)c5ccccc5[C@]45C[C@@H]([C@@H]2[C@H]5O)N3[C@@H]1O`
Response: 72.6 IU/L

Prompt: Please list LDH recorded for the compound CC1=C(CC(=O)O)c2cc(F)ccc2/C1=C\c1ccc([S+](C)[O-])cc1 (stereo not given)
Response: 71.6 IU/L

More entries:
Prompt: Please list LDH recorded for the compound CC(C)N(CCC(C(N)=O)(c1ccccc1)c1ccccn1)C(C)C (stereo not given) [DISOPYRAMIDE]
Response: 164.8 IU/L

* * *

Species on record: Rattus norvegicus
Assay: Open TG-GATES - Regimen: Daily Repeat
Format: toxicity, organism-based, Sprague-Dawley
Set-up: regimen Daily Repeat, gender Male, age 6 weeks
Settings: in vivo, po, 0 mg/kg, […], tissue Blood, route gavage, dose level Control, time 28 day
Some molecules, each annotated with its measured MCH.
Form entry: enter the amount, then its unit.

Prompt: Please list MCH recorded for the molecule ClC(Cl)(Cl)Cl [CARBON TETRACHLORIDE]
Response: 19.3 pg

Prompt: Please list MCH recorded for the molecule `CCc1oc2ccccc2c1C(=O)c1cc(Br)c(O)c(Br)c1`
Response: 18.6 pg

Prompt: Please list MCH recorded for the molecule `CC[C@H]1[C@@H]2C[C@H]3[C@@H]4N(C)c5ccccc5[C@]45C[C@@H]([C@@H]2[C@H]5O)N3[C@@H]1O`
Response: 19.1 pg

Prompt: Please list MCH recorded for the molecule `CCC1(c2ccccc2)C(=O)NC(=O)NC1=O`
Response: 19.3 pg

More entries:
Prompt: Please list MCH recorded for the molecule CN(C)CCC=C1c2ccccc2COc2ccccc21 [DOXEPIN]
Response: 20.2 pg

Prompt: Please list MCH recorded for the molecule CC1=C(CC(=O)O)c2cc(F)ccc2/C1=C\c1ccc([S+](C)[O-])cc1 (centres undefined)
Response: 18.9 pg

Prompt: Please list MCH recorded for the molecule OCCOCCN1CCN(C(c2ccccc2)c2ccc(Cl)cc2)CC1 (centres undefined) [HYDROXYZINE]
Response: 19.7 pg

Prompt: Please list MCH recorded for the molecule `O=NN(CCCl)C(=O)NC1CCCCC1`
Response: 19.2 pg

Prompt: Please list MCH recorded for the molecule `CCCCc1oc2ccccc2c1C(=O)c1cc(I)c(OCCN(CC)CC)c(I)c1`
Response: 19.9 pg

* * *

Some molecules, each annotated with its measured TC.
Species: Rattus norvegicus
Assay: Open TG-GATES - Regimen: Single
Format: toxicity, organism-based, Sprague-Dawley
Design: regimen Single, gender Male, age 6 weeks
Conditions: in vivo, po, 0 mg/kg, 9 h, tissue Plasma, route gavage, dose level Control
Reply with just the number (in mg/dL).

Study these solved cases before continuing.
Prompt: Please list TC recorded for the molecule `O=NN(CCCl)C(=O)NC1CCCCC1`
Response: 67.2

Prompt: Please list TC recorded for the molecule CC(C)N(CCC(C(N)=O)(c1ccccc1)c1ccccn1)C(C)C (stereo not given) [DISOPYRAMIDE]
Response: 62.4

Prompt: Please list TC recorded for the molecule OCCOCCN1CCN(C(c2ccccc2)c2ccc(Cl)cc2)CC1 (stereo not given) [HYDROXYZINE]
Response: 76.8

Prompt: Please list TC recorded for the molecule `CCC1(c2ccccc2)C(=O)NC(=O)NC1=O`
Response: 70.6

Prompt: Please list TC recorded for the molecule ClC(Cl)(Cl)Cl [CARBON TETRACHLORIDE]
Response: 69.8

More entries:
Prompt: Please list TC recorded for the molecule `CC[C@H]1[C@@H]2C[C@H]3[C@@H]4N(C)c5ccccc5[C@]45C[C@@H]([C@@H]2[C@H]5O)N3[C@@H]1O`
Response: 74.6

Prompt: Please list TC recorded for the molecule `CN(C)C(=N)N=C(N)N`
Response: 87

Prompt: Please list TC recorded for the molecule `CCc1oc2ccccc2c1C(=O)c1cc(Br)c(O)c(Br)c1`
Response: 71.6

Prompt: Please list TC recorded for the molecule CC1=C(CC(=O)O)c2cc(F)ccc2/C1=C\c1ccc([S+](C)[O-])cc1 (stereo not given)
Response: 83

Prompt: Please list TC recorded for the molecule CN(C)CCC=C1c2ccccc2COc2ccccc21 [DOXEPIN]
Response: 70.6

* * *

Species on record: Rattus norvegicus
Assay: Open TG-GATES - Regimen: Daily Repeat
Assay type: toxicity, organism-based, Sprague-Dawley
Set-up: regimen Daily Repeat, gender Male, age 6 weeks
Conditions: in vivo, po, 0 mg/kg, […], tissue Blood, route gavage, dose level Control, time 28 day
MEASURE NAME: MCV
Form entry: enter the amount, then its unit.

Study these solved cases before continuing.
Prompt: Please list MCV recorded for the molecule `CC[C@H]1[C@@H]2C[C@H]3[C@@H]4N(C)c5ccccc5[C@]45C[C@@H]([C@@H]2[C@H]5O)N3[C@@H]1O`
Response: 57 fL

Prompt: Please list MCV recorded for the molecule OCCOCCN1CCN(C(c2ccccc2)c2ccc(Cl)cc2)CC1 (stereo not given) [HYDROXYZINE]
Response: 56.7 fL

Prompt: Please list MCV recorded for the molecule `CCCCc1oc2ccccc2c1C(=O)c1cc(I)c(OCCN(CC)CC)c(I)c1`
Response: 56.3 fL

Prompt: Please list MCV recorded for the molecule `CN(C)C(=N)N=C(N)N`
Response: 56.9 fL

Proceeding to the next molecule to report its MCV.
Prompt: Please list MCV recorded for the molecule CC(C)N(CCC(C(N)=O)(c1ccccc1)c1ccccn1)C(C)C (stereo not given) [DISOPYRAMIDE]
Response: 56.9 fL

* * *

Some compounds, each annotated with its measured Mono.
Organism: Rattus norvegicus
Assay: Open TG-GATES - Regimen: Single
Assay type: toxicity, organism-based, Sprague-Dawley
Design: regimen Single, gender Male, age 6 weeks
Details: in vivo, po, 100 mg/kg, 24 h, tissue Blood, route gavage, dose level Low
Reply with just the number (in %).

Prompt: Please list Mono recorded for the compound CN(C)CCC=C1c2ccccc2COc2ccccc21 [DOXEPIN]
Response: 2.6

Prompt: Please list Mono recorded for the compound O=NN1CCOCC1 [N-NITROSOMORPHOLINE]
Response: 3.8

Prompt: Please list Mono recorded for the compound CCC1(c2ccccc2)C(=O)NC(=O)NC1=O [PHENOBARBITAL]
Response: 2.6

Prompt: Please list Mono recorded for the compound CN(C)C(=N)N=C(N)N [METFORMIN]
Response: 3.6

* * *

Species on record: Rattus norvegicus
Test: Open TG-GATES - Regimen: Single
Format: toxicity, organism-based, Sprague-Dawley
Set-up: regimen Single, gender Male, age 6 weeks
Conditions: in vivo, po, 0 mg/kg, 24 h, tissue Plasma, route gavage, dose level Control
Some compounds, each annotated with its measured Na.
Reply with just the number (in meq/L).

Prompt: Please list Na recorded for the compound CN(C)CCC=C1c2ccccc2COc2ccccc21 [DOXEPIN]
Response: 141.6

Prompt: Please list Na recorded for the compound `CC[C@H]1[C@@H]2C[C@H]3[C@@H]4N(C)c5ccccc5[C@]45C[C@@H]([C@@H]2[C@H]5O)N3[C@@H]1O`
Response: 140.6

Prompt: Please list Na recorded for the compound `CCC1(c2ccccc2)C(=O)NC(=O)NC1=O`
Response: 142

Prompt: Please list Na recorded for the compound `O=NN(CCCl)C(=O)NC1CCCCC1`
Response: 138.2

Prompt: Please list Na recorded for the compound OCCOCCN1CCN(C(c2ccccc2)c2ccc(Cl)cc2)CC1 (stereo not given) [HYDROXYZINE]
Response: 141.4

Prompt: Please list Na recorded for the compound `CCc1oc2ccccc2c1C(=O)c1cc(Br)c(O)c(Br)c1`
Response: 138.8

Prompt: Please list Na recorded for the compound `O=NN1CCOCC1`
Response: 141.3

Prompt: Please list Na recorded for the compound CC1=C(CC(=O)O)c2cc(F)ccc2/C1=C\c1ccc([S+](C)[O-])cc1 (stereo not given)
Response: 142.2

Prompt: Please list Na recorded for the compound `CN(C)C(=N)N=C(N)N`
Response: 141.2

Prompt: Please list Na recorded for the compound ClC(Cl)(Cl)Cl [CARBON TETRACHLORIDE]
Response: 140

* * *

Organism: Rattus norvegicus
Assay: Open TG-GATES - Regimen: Single
Format: toxicity, organism-based, Sprague-Dawley
Set-up: regimen Single, gender Male, age 6 weeks
Conditions: in vivo, po, 0 mg/kg, 24 h, tissue Kidney, route gavage, dose level Control
MEASURE NAME: KIDNEY_TOTAL (g)
Reply with just the number (in g).

Study these solved cases before continuing.
Prompt: Please list KIDNEY_TOTAL recorded for the compound `CCC1(c2ccccc2)C(=O)NC(=O)NC1=O`
Response: 2.2

Prompt: Please list KIDNEY_TOTAL recorded for the compound ClC(Cl)(Cl)Cl [CARBON TETRACHLORIDE]
Response: 1.9

Prompt: Please list KIDNEY_TOTAL recorded for the compound CN(C)CCC=C1c2ccccc2COc2ccccc21 [DOXEPIN]
Response: 1.9

Prompt: Please list KIDNEY_TOTAL recorded for the compound `CC[C@H]1[C@@H]2C[C@H]3[C@@H]4N(C)c5ccccc5[C@]45C[C@@H]([C@@H]2[C@H]5O)N3[C@@H]1O`
Response: 1.8

Prompt: Please list KIDNEY_TOTAL recorded for the compound `CCc1oc2ccccc2c1C(=O)c1cc(Br)c(O)c(Br)c1`
Response: 2

Prompt: Please list KIDNEY_TOTAL recorded for the compound `CN(C)C(=N)N=C(N)N`
Response: 1.8

Prompt: Please list KIDNEY_TOTAL recorded for the compound CC(C)N(CCC(C(N)=O)(c1ccccc1)c1ccccn1)C(C)C (stereo unspecified) [DISOPYRAMIDE]
Response: 2

Prompt: Please list KIDNEY_TOTAL recorded for the compound `O=NN1CCOCC1`
Response: 2.1

More entries:
Prompt: Please list KIDNEY_TOTAL recorded for the compound CC1=C(CC(=O)O)c2cc(F)ccc2/C1=C\c1ccc([S+](C)[O-])cc1 (stereo unspecified)
Response: 1.8

Prompt: Please list KIDNEY_TOTAL recorded for the compound `O=NN(CCCl)C(=O)NC1CCCCC1`
Response: 2

Prompt: Please list KIDNEY_TOTAL recorded for the compound OCCOCCN1CCN(C(c2ccccc2)c2ccc(Cl)cc2)CC1 (stereo unspecified) [HYDROXYZINE]
Response: 1.8

Data credit: ChEMBL document CHEMBL3885861
